Tested on: α-synO-induced vesicle trafficking deficits
Experiment: Vesicle trafficking in neuronal cultures treated with α-synuclein oligomers
Format: cell-based, Rat
Details: Rattus norvegicus; α-synOs 1.0 μM final concentration, FIG. 1G; read-out: EC50, amelioration of α-synO vesicle trafficking deficit
Method: FIG. 1F is a graphical representation of vesicular trafficking in untreated control cultures, cultures treated with α-synuclein oligomers (α-SynO) for 24 hours, or cultures treated with α-synuclein oligomers (α-SynO) and Compound B FIG. 1G is a graphical representation of vesicular trafficking in untreated control cultures, cultures treated with α-synuclein oligomers (α-SynO) for 24 hours, or cultures treated with α-synuclein oligomers (α-SynO) and Compound A […]
pEC50: −log10 of the molar value.
Assay metric: pEC50

compound="CC(C)(C)Oc1cc(CCC(C)(C)N2Cc3ccc(S(C)(=O)=O)cc3C2)ccc1O [Compound A]" subject_of_test="α-synO-induced vesicle trafficking deficits" measured_number=6.19
